Entries and their IC50 values follow.
System: SARS-CoV-2
test description: microbe, parasite or virus in culture
recorded conditions: Severe acute respiratory syndrome coronavirus 2, D614, Vero C1008
Description: Antiviral activity against SARS-CoV-2 D614 isolates infected in African green monkey Vero E6 cells assessed as reduction in plaque formation treated for 1 hr prior to infection with cells incubated for 30 mins by plaque reduction neutralization test
The figure you give is taken to be in µg/mL; do not add the unit.

# example entries with known answers
[
  {
    "smiles record": "CC(C)CCC[C@@H](C)[C@H]1CC[C@H]2[C@@H]3CC[C@H]4C[C@@H](O[C@@H]5O[C@@H](COS(=O)(=O)O)[C@@H](O[C@@H]6O[C@@H](COS(=O)(=O)O)[C@@H](OS(=O)(=O)O)[C@H](O)[C@H]6OS(=O)(=O)O)[C@H](O)[C@H]5OS(=O)(=O)O)CC[C@]4(C)[C@H]3CC[C@]12C",
    "uom": "µg/mL",
    "quantitative readout": 32.1
  },
  {
    "smiles record": "CC(C)CCC[C@@H](C)[C@H]1CC[C@H]2[C@@H]3CC[C@H]4C[C@@H](O[C@@H]5O[C@@H](C(=O)O)[C@@H](O[C@@H]6O[C@@H](C(=O)O)[C@@H](O[C@@H]7O[C@@H](C(=O)O)[C@@H](OS(=O)(=O)O)[C@H](O)[C@H]7OS(=O)(=O)O)[C@H](O)[C@H]6OS(=O)(=O)O)[C@H](O)[C@H]5OS(=O)(=O)O)CC[C@]4(C)[C@H]3CC[C@]12C",
    "uom": "µg/mL",
    "quantitative readout": 30.4
  },
  {
    "smiles record": "CC(C)CCC[C@@H](C)[C@H]1CC[C@H]2[C@@H]3CC[C@H]4C[C@@H](O[C@@H]5O[C@@H](COS(=O)(=O)O)[C@@H](O[C@@H]6O[C@@H](COS(=O)(=O)O)[C@@H](O[C@@H]7O[C@@H](COS(=O)(=O)O)[C@@H](O[C@@H]8O[C@@H](COS(=O)(=O)O)[C@@H](OS(=O)(=O)O)[C@H](O)[C@H]8OS(=O)(=O)O)[C@H](O)[C@H]7OS(=O)(=O)O)[C@H](O)[C@H]6OS(=O)(=O)O)[C@H](O)[C@H]5OS(=O)(=O)O)CC[C@]4(C)[C@H]3CC[C@]12C",
    "uom": "µg/mL",
    "quantitative readout": 27.5
  }
]

Problem: Looking for the measured IC50 of `CC(C)CCC[C@@H](C)[C@H]1CC[C@H]2[C@@H]3CC[C@H]4C[C@@H](O[C@@H]5O[C@@H](COS(=O)(=O)O)[C@@H](O[C@@H]6O[C@@H](COS(=O)(=O)O)[C@@H](O[C@@H]7O[C@@H](COS(=O)(=O)O)[C@@H](OS(=O)(=O)O)[C@H](O)[C@H]7OS(=O)(=O)O)[C@H](O)[C@H]6OS(=O)(=O)O)[C@H](O)[C@H]5OS(=O)(=O)O)CC[C@]4(C)[C@H]3CC[C@]12C` , can you help?
Solution: 26.9

Problem: Looking for the measured IC50 of `CC(C)CCC[C@@H](C)[C@H]1CC[C@H]2[C@@H]3CC[C@H]4C[C@@H](O[C@@H]5O[C@@H](C(=O)O)[C@@H](O[C@@H]6O[C@@H](C(=O)O)[C@@H](O[C@@H]7O[C@@H](C(=O)O)[C@@H](O[C@@H]8O[C@@H](C(=O)O)[C@@H](OS(=O)(=O)O)[C@H](O)[C@H]8OS(=O)(=O)O)[C@H](O)[C@H]7OS(=O)(=O)O)[C@H](O)[C@H]6OS(=O)(=O)O)[C@H](O)[C@H]5OS(=O)(=O)O)CC[C@]4(C)[C@H]3CC[C@]12C` , can you help?
Solution: 48.5

Problem: Looking for the measured IC50 of `CC(C)CCC[C@@H](C)[C@H]1CC[C@H]2[C@@H]3CC[C@H]4C[C@@H](O[C@@H]5O[C@@H](C(=O)O)[C@@H](O[C@@H]6O[C@@H](C(=O)O)[C@@H](OS(=O)(=O)O)[C@H](O)[C@H]6OS(=O)(=O)O)[C@H](O)[C@H]5OS(=O)(=O)O)CC[C@]4(C)[C@H]3CC[C@]12C` , can you help?
Solution: 33.7
